- Tested on: female CD-1 mice
- measurement description: Liver damage by serum sorbitol dehydrogenase (SDH) after 14 days oral gavage of trihalomethane DBPs
- assay context: generalized linear model with power link, λ = 0.5; single chemical data only; female CD-1 mice, 14 days oral gavage
reported endpoint: Estimate of slope parameter γi, additivity model for SDH response
Please give only the number in your answer, with no unit.

Incoming: Field request: Estimate of slope parameter γi, additivity model for SDH response | item: ClC(Cl)Cl [CHCl3, chloroform]
Outgoing: 1.538

Incoming: What would you report for ClC(Br)Br [CDBM, chlorodibromomethane] ?
Outgoing: 3.833

Incoming: What would you report for BrC(Br)Br [CHBr3, bromoform] ?
Outgoing: 2.441

Incoming: What would you report for ClC(Cl)Br [BDCM, bromodichloromethane] ?
Outgoing: 3.567

* * *

Would you kindly list Threshold Estimate for each of these molecules?
- Test system: healthy adult rats
- assay context: dose threshold for motor activity, threshold additivity model, SAR analysis, rats
# number only, unit mg/kg dropped from output

Incoming: Field request: Threshold Estimate | item: CNC(=O)CSP(=S)(OC)OC [Dimethoate, dimethoate]
Outgoing: 8.72

Incoming: What would you report for CCOP(=S)(OCC)Oc1nc(Cl)c(Cl)cc1Cl [Chlorpyrifos, chlorpyrifos] ?
Outgoing: 4.69

Incoming: What would you report for COP(=O)(NC(C)=O)SC (stereo not shown) [Acephate, acephate] ?
Outgoing: 6.30

Incoming: What would you report for CCOP(=S)(OCC)Oc1cc(C)nc(C(C)C)n1 [Diazinon, diazinon] ?
Outgoing: 25.0
